Data origin: patent US20240076297A1

- SYSTEM: human A2B adenosine receptor (Homo sapiens (Human), UniProt P29275)
- Sequence (P29275 whole entry): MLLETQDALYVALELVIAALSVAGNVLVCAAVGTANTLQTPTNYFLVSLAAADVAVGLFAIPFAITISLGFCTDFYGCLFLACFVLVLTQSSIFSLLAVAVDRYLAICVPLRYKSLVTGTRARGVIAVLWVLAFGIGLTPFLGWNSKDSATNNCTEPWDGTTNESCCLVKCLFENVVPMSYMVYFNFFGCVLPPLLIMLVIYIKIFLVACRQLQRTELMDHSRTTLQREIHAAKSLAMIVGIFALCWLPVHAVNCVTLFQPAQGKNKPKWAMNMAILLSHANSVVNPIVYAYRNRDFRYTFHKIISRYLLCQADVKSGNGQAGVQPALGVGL
- ASSAY EXPLANATION: A2B binding affinity, radioligand filtration binding assay
- MEASUREMENT SETUP: value given with marker (B); HEK293 membranes expressing human A2B, tritiated proprietary antagonist
OBSERVATION TYPE: log10(IC50) (log10 of the value in nM)
Please note: log10 values; quantity IC50; unit nM.

Use the examples below as a reference point.
CC[C@@H](O)Cc1nc2c3cccc(OC)c3nc(N)n2n1: 2.49
COc1cccc2c1nc(N)n1nc(C[C@H](C)O)nc21: 2.33
COc1cccc2c1nc(N)n1nc(CS(=O)(=O)c3ccccc3)nc21: 3.58

Req: Can you share its log10(IC50)? I mean this compound: COc1cccc2c1nc(N)n1nc(CC(C)(C)O)nc21
Resp: 2.11

Req: Same again, this time with COc1cccc2c1nc(N)n1nc([C@@H](C)CO)nc21
Resp: 3.48

Req: Same again, this time with COc1cccc2c1nc(N)n1nc([C@H](C)CO)nc21
Resp: 3.03

Req: Same again, this time with COc1cccc2c1nc(N)n1nc(C[C@@H](C)O)nc21
Resp: 2.32

###

Entries and their measured IC50 follow.
- SYSTEM: human A2A adenosine receptor (Homo sapiens (Human), UniProt P29274)
- Sequence (P29274 whole entry): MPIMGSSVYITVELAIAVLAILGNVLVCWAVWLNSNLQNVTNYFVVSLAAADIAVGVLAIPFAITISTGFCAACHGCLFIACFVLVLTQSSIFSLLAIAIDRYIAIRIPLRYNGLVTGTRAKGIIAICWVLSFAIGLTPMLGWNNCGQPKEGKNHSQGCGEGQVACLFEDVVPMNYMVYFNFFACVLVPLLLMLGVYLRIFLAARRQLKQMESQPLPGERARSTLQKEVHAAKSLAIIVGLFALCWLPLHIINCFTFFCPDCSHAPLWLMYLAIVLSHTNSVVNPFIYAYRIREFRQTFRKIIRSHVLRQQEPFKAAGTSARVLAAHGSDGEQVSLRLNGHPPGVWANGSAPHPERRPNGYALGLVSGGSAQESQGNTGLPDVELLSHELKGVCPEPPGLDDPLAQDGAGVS
- ASSAY EXPLANATION: A2A binding affinity using radioligand binding, Method (A)
- MEASUREMENT SETUP: Method (A): filtration radioligand binding, [3H] SCH58261, membranes expressing human A2A
Numbers only; they are read as nM.

COc1cccc2c1nc(N)n1nc(C[C@@H](C)O)nc21: 15.1
COc1cccc2c1nc(N)n1nc([C@H](C)CO)nc21: 145
COc1ccc2c(c1)nc(N)n1nc(CCS(=O)(=O)c3ccc(F)cc3)nc21: 170

Req: Can you share its IC50? I mean this molecule: COc1cccc2c1nc(N)n1nc(COCc3ccc(C(O)(C(F)(F)F)C(F)(F)F)cc3)nc21
Resp: 0.1

Req: Same again, this time with CC[C@@H](O)Cc1nc2c3cccc(OC)c3nc(N)n2n1
Resp: 13.9

Req: Same again, this time with COc1cccc2c1nc(N)n1nc(CCC3CCc4c(nnn4C4CC(F)(F)C4)C3)nc21 (single isomer, unassigned) [Example 5.3B]
Resp: 0.9

Req: Same again, this time with COc1ccc2c(c1)nc(N)n1nc(CCS(=O)(=O)CC(C)C)nc21
Resp: 76.9

Req: Same again, this time with COc1cc(F)cc2c1nc(N)n1nc(CCS(=O)(=O)C3CC3)nc21
Resp: 0.8

Req: Same again, this time with COc1cc(F)cc2c1nc(N)n1nc(CCC3CCc4nn(C(C)C)cc4C3)nc21 (single isomer, unassigned) [Example 5.4A]
Resp: 1.9

Req: Same again, this time with COc1cc(F)cc2c1nc(N)n1nc(CCC3CCn4c(cnc4C4CC(F)(F)C4)C3)nc21 (single isomer, unassigned) [Example 7.3B]
Resp: 4.6

Req: Same again, this time with COc1cccc2c1nc(N)n1nc(CCC3CCc4c(nnn4C4CC(F)(F)C4)C3)nc21 (single isomer, unassigned) [Example 5.3A]
Resp: 0.9

Req: Same again, this time with CCOC(=O)CCCn1cc(Cc2nc3c4cc(F)cc(OC)c4nc(N)n3n2)cn1
Resp: 14.9

Req: Same again, this time with COc1cccc2c1nc(N)n1nc(CCS(=O)(=O)c3ccc(F)cc3)nc21
Resp: 0.3

Req: Same again, this time with COc1cc(F)cc2c1nc(N)n1nc(CCC3CCc4c(nnn4C4CC(F)(F)C4)C3)nc21 (single isomer, unassigned) [Example 7.6B]
Resp: 4.2

Req: Same again, this time with COc1ccc2c(c1)nc(N)n1nc(CCS(=O)(=O)C3CC3)nc21
Resp: 8.2

Req: Same again, this time with COc1cc(F)cc2c1nc(N)n1nc(CCC3(O)CCc4c(nnn4C4CC(F)(F)C4)C3)nc21 (single isomer, unassigned) [Example 14.3B]
Resp: 3.4

###

- SYSTEM: UniProtKB P29274
- ASSAY EXPLANATION: A2A binding affinity using SPA, Method (B)
- MEASUREMENT SETUP: [3H] SCH58261, A2A receptor-expressing membranes
- Text: Method (A) describes the procedure used to measure A2A binding affinity using radioligand binding. Method (B) describes the procedure used to measure A2A binding affinity using SPA technology. The method used to measure A2B binding affinity is also described below. […] The A2B IC50 value measured using the A2B binding affinity assay is shown in the table next to the compound under the corresponding A2A value. […]
Entries and their measured IC50 follow.

Use the examples below as a reference point.
COc1cccc2c1nc(N)n1nc(COCC(F)(F)F)nc21: 3.5 nM
COc1cccc2c1nc(N)n1nc(COC(C)C)nc21: 5.7 nM

Req: Can you share its IC50? I mean this compound: COc1cccc2c1nc(N)n1nc(COCc3c(C)ccnc3C)nc21
Resp: 8.7 nM

Req: Same again, this time with CCOCc1nc2c3cccc(OC)c3nc(N)n2n1
Resp: 8.7 nM

Req: Same again, this time with COc1cccc2c1nc(N)n1nc(CCCSc3ccc(C(F)(F)F)cc3)nc21
Resp: 8.4 nM

Req: Same again, this time with COc1cccc2c1nc(N)n1nc(COCCF)nc21
Resp: 7.2 nM

###

- SYSTEM: human A2A adenosine receptor (Homo sapiens (Human))
- ASSAY EXPLANATION: A2A binding affinity using radioligand binding, Method (A)
- MEASUREMENT SETUP: Method (A): filtration radioligand binding, [3H] SCH58261, membranes expressing human A2A
IC50 less than 8 nM is MET; IC50 greater than or equal to 8 nM is NOT MET.

The following compounds have reported results that may help.
COc1cc(F)cc2c1nc(N)n1nc(CCC3CCn4c(cnc4C4(C(F)(F)F)CC4)C3)nc21 (single isomer, unassigned) [Example 12.3A]: MET
COc1cc2nc(N)n3nc(CCS(=O)(=O)CC(C)C)nc3c2cc1F: NOT MET
COc1ccc(C2=COCCC2)c2c1nc(N)n1nc(CO)nc21: MET
COc1cccc2c1nc(N)n1nc(CC3CC3c3ccc(C(C)(C)N)cc3)nc21 (single isomer, unassigned) [Example 8.5A]: MET
COc1cc(F)cc2c1nc(N)n1nc(Cc3cnn(CCC(C)(C)O)c3)nc21: NOT MET

Next:
Req: API: query returns whether the compound falls strictly under 8 nM in IC50. Query: COc1cccc2c1nc(N)n1nc(CCOc3ccc(C(O)(C(F)(F)F)C(F)(F)F)cc3)nc21
Resp: MET

###

Entries and their measured IC50 follow.
- SYSTEM: UniProtKB P29274
- ASSAY EXPLANATION: A2A binding affinity using radioligand binding, Method (A)
- MEASUREMENT SETUP: Method (A): filtration radioligand binding, [3H] SCH58261, membranes expressing human A2A
Numbers only; they are read as nM.

Use the examples below as a reference point.
COc1cc2nc(N)n3nc(CCS(=O)(=O)c4ccc(F)cc4)nc3c2cc1F: 57.7
CS(=O)(=O)CCCc1nc2c3cc(F)cc(F)c3nc(N)n2n1: 21.8
COc1cc2nc(N)n3nc(CC(C)S(C)(=O)=O)nc3c2cc1F (single isomer, unassigned) [Example 13.2A]: 0.7

Okay, next one:
Req: Can you share its IC50? I mean this compound: COc1cccc2c1nc(N)n1nc(CC3CC3c3ccc(C(C)(C)O)cc3)nc21 (single isomer, unassigned)
Resp: 0.3

###

- SYSTEM: UniProtKB P29275
- ASSAY EXPLANATION: A2B binding affinity, radioligand filtration binding assay
- MEASUREMENT SETUP: value given with marker (A); HEK293 membranes expressing human A2B, tritiated proprietary antagonist
OBSERVATION TYPE: pIC50
pIC50 (log units): -log10 of the concentration in mol/L.

Use the examples below as a reference point.
COc1cc2nc(N)n3nc(CCS(C)(=O)=O)nc3c2cc1F: 5.72
COc1cc(F)cc2c1nc(N)n1nc(CC3CC3c3ccc(C(C)(C)N)cc3)nc21 (single isomer, unassigned): 6.86
CCS(=O)(=O)CCc1nc2c3ccc(OC)cc3nc(N)n2n1: 5.97

Req: Can you share its pIC50? I mean this compound: COc1cc2nc(N)n3nc(CCS(=O)(=O)c4ccccc4)nc3c2cc1F
Resp: 6.34

###

Entries and their measured IC50 follow.
- SYSTEM: human A2A adenosine receptor (Homo sapiens (Human))
- ASSAY EXPLANATION: A2A binding affinity using radioligand binding, Method (A)
- MEASUREMENT SETUP: Method (A): filtration radioligand binding, [3H] SCH58261, membranes expressing human A2A
Numbers only; they are read as nM.

Use the examples below as a reference point.
COc1cccc2c1nc(N)n1nc(CCC3CCc4c(nnn4C(C)C)C3)nc21 (single isomer, unassigned) [Example 5.2B]: 0.8
COc1cccc2c1nc(N)n1nc(CCS(=N)(=O)C3CC3)nc21 (single isomer, unassigned) [Example 11.1B]: 3.4

Okay, next one:
Req: Can you share its IC50? I mean this compound: COc1cccc2c1nc(N)n1nc(CCC3CCn4c(cnc4C4CC(F)(F)C4)C3)nc21 (single isomer, unassigned) [Example 7.5A]
Resp: 2.2
